# System: BT-474
# ASSAY: normalised response (% of control), CellTiter-Glo; higher = more viable cells (100 = DMSO, 0 = benzethonium chloride kill control)
# CONDITION SET: incubation time: 72 h
MEASURED PROPERTY: normalised response (%)
All answers are understood in %, so give the number only.

Past entries and their recorded results:
C[C@]12CC[C@H](O)CC1=CC[C@@H]1[C@@H]2CC[C@]2(C)C(c3cccnc3)=CC[C@@H]12 [Abiraterone] (5000 nM) : 97
O=C1NC(=O)[C@@H](c2cn3c4c(cccc24)CCC3)[C@@H]1c1c[nH]c2ccccc12 [Tivantinib] (1000 nM) : 60.2

*Q* What measured normalised response goes with C/C(=C\c1csc(C)n1)[C@@H]1C[C@@H]2O[C@]2(C)CCC[C@H](C)[C@H](O)[C@@H](C)C(=O)C(C)(C)[C@@H](O)CC(=O)O1 [Patupilone] (1000 nM) ?
*A* 36.8

Just for reference, the supplement of paper PMC4862054 is where these values come from.
